# run-description: Solubility of ADX-102 in potential receiver fluid systems
# Assay type: physicochemical
# test-conditions: aqueous with cosolvent or surfactant or cyclodextrin; receiver fluid 1: ethanol and water (50:50 v/v)
measurement-label: solubility (mg/mL)
Give the value in mg/mL but do not write mg/mL after it.

Value lookup for solubility; key = CC(C)(O)c1nc2ccc(Cl)cc2cc1N [ADX-102] 23.6

---

# run-description: Solubility of ADX-102 in potential receiver fluid systems
# Format: physicochemical
# test-conditions: aqueous with cosolvent or surfactant or cyclodextrin; receiver fluid 3: 20% PEG 400 in water
# Method: The solubility of the drug in a range of receiver fluid systems was determined to ensure that drug release was not limited by the solubility of ADX-102 in the receptor compartment of Franz cells. The receiver fluids selected for investigation were: ethanol and water (50:50 v/v), 2% Brij 98 in ethanol and water (50:50 v/v), 20% PEG in water, 20% PEG 400 in ethanol and water (50:50 v/v) and 2% Tween 80 in water. The findings are summarized below.
measurement-label: solubility
Put your answer as a value accompanied by its unit after it.

Value lookup for solubility; key = CC(C)(O)c1nc2ccc(Cl)cc2cc1N 1310 µg/mL
